Some compounds, each annotated with its measured number of serine hydrolases inhibited >=50%.
Test: broad serine hydrolase inhibition in proteome, late-stage follow-up, selectivity assay for PAFAH2 inhibitor project, fluorescence, gel-based ABPP, powder samples (AID 504527)
Settings: BW5147 murine T-cell proteome, FP-Rh fluorescence, competitor test compound, probe FP-Rh, at 20 µM, stronger effect = higher value
MEASUREMENT_NAME: number of serine hydrolases inhibited >=50%

{"SUBSTANCE_SMILES": "C#CCOCCOCCOCCN(Cc1ccccc1)C(=O)n1ncc(-c2ccccc2)n1", "NUMBER": 8}
{"SUBSTANCE_SMILES": "C#CCOCCOCCOCCN(Cc1ccccc1)C(=O)Oc1ccc([N+](=O)[O-])cc1", "NUMBER": 1}
{"SUBSTANCE_SMILES": "C#CCOCCOCCOCCN(Cc1ccccc1)C(=O)n1ccnc1", "NUMBER": 0}
{"SUBSTANCE_SMILES": "C#CCOCCOCCOCCN(Cc1ccccc1)C(=O)n1nccn1", "NUMBER": 5}
{"SUBSTANCE_SMILES": "C#CCOCCOCCOCCN(Cc1ccccc1)C(=O)n1nc2cccnc2n1", "NUMBER": 7}
